assay-system: T1, human galanin receptor 2 (hGalR2) (human, UniProt O43603 1-387)
T1 sequence (looked up): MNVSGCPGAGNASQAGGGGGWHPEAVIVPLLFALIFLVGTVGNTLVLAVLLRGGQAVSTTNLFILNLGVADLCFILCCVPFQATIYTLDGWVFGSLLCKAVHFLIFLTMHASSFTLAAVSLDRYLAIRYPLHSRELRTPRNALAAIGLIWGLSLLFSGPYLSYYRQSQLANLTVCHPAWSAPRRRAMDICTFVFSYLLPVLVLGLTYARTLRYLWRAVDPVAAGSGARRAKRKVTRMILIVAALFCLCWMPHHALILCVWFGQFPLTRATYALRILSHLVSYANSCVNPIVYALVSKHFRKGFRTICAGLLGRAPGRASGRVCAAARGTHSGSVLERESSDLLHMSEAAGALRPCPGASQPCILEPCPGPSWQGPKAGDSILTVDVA
assay-procedure: cell-based or functional assay
Positions of bridges follow the written chain, without caps; N, C: chain ends. No end group written: not given here.
Emax, receptor activation (SRE-Luc assay) values for the binders below.

# binder, value-observed
data = [
    ("Ac-CWTLNSAGYLLGCHAV-NH2 (disulfide 1-13) [LH201 (Ac)]", "1.16 relative to hSPX Emax"),
]

Endpoint output: Emax, receptor activation (SRE-Luc assay) of Ac-CWTPQAMLYLKGCQ-NH2 (disulfide 1-13; SMILES CSCC[C@@H]1NC(=O)[C@H](C)NC(=O)[C@H](CCC(N)=O)NC(=O)[C@@H]2CCCN2C(=O)[C@H]([C@@H](C)O)NC(=O)[C@H](Cc2c[nH]c3ccccc23)NC(=O)[C@@H](NC(C)=O)CSSC[C@@H](C(=O)N[C@@H](CCC(N)=O)C(N)=O)NC(=O)CNC(=O)[C@H](CCCCN)NC(=O)[C@H](CC(C)C)NC(=O)[C@H](Cc2ccc(O)cc2)NC(=O)[C@H](CC(C)C)NC1=O) [LH101 (Ac)] . Value?
0.97 relative to hSPX Emax

Looking for the measured Emax, receptor activation (SRE-Luc assay) of NWTPQAMLYLKGCQ-NH2 [hSPX (C13)] , can you help?
0.87 relative to hSPX Emax

I would be grateful if you could share the reported Emax, receptor activation (SRE-Luc assay) for CWTLNSAGYLLGCHAV-NH2 (disulfide 1-13; N-terminus assumed; SMILES CC(C)C[C@@H]1NC(=O)[C@H](CC(C)C)NC(=O)[C@H](Cc2ccc(O)cc2)NC(=O)CNC(=O)[C@H](C)NC(=O)[C@H](CO)NC(=O)[C@H](CC(N)=O)NC(=O)[C@H](CC(C)C)NC(=O)[C@H]([C@@H](C)O)NC(=O)[C@H](Cc2c[nH]c3ccccc23)NC(=O)[C@@H](N)CSSC[C@@H](C(=O)N[C@@H](Cc2c[nH]cn2)C(=O)N[C@@H](C)C(=O)N[C@H](C(N)=O)C(C)C)NC(=O)CNC1=O) [LH201] .
1 relative to hSPX Emax
